I'd appreciate it if you could supply Plant response rating (0 = no effect, 100 = complete control), Goosegrass values for the items below.
Test system: goosegrass
Test: Test C pre-/postemergence herbicide test
Type: in vivo, Eleusine indica
Settings: 62 g ai/ha; preemergence
Answer with a number only.

-- ask Tell me the measured Plant response rating (0 = no effect, 100 = complete control), Goosegrass of CCn1nc(C(C)(C)C)cc1C(=O)Nc1cccc(S(=O)(=O)C(F)(F)F)c1 , please.
-- reply 20

-- ask Any idea what its Plant response rating (0 = no effect, 100 = complete control), Goosegrass is? The compound is CCn1nc(C(C)(C)C)cc1C(=O)Nc1ccc(F)c(C(=O)NCCF)c1
-- reply 55

-- ask Any idea what its Plant response rating (0 = no effect, 100 = complete control), Goosegrass is? The compound is CCCn1nc(C(C)(C)C)cc1C(=O)Nc1cccc(C(=O)NCC)c1
-- reply 45

-- ask What value of measured Plant response rating (0 = no effect, 100 = complete control), Goosegrass is listed for CCn1nc(C(C)(C)C)cc1C(=O)Nc1cc(C(=O)N(C)C)ccc1F ?
-- reply 85
